experiment: Sedimentation equilibrium (analytical ultracentrifugation); type: physicochemical; conditions: 20 μM peptide in PBS; 3.0 = discrete trimer
OBSERVABLE: Mobs/Mcalc
# respond with the number and nothing more

[[record]]
substance = "Ac-RMKQIEDKIEEIESKQKKIENEIARIKKLIEAQQHLLQLTVWGIKQLQARIL-NH2 [IQN23]"
reported_value = 3.29

[[record]]
substance = "Ac-KIEEIESKIKKIENEIARIKKLLQLTVWGIKQLQARIL-NH2 [II22N17]"
reported_value = 3.02

[[record]]
substance = "Ac-RMKQIEDKIEEIESKQKKIENEIARIKKLLQLTVWGIKQLQARIL-NH2 [IQN17]"
reported_value = 3.15


Shifting focus to the substance that follows.
[ask] For the substance Ac-KIKKIENEIARIKKLLQLTVWGIKQLQARIL-NH2 [II15N17] , what Mobs/Mcalc is on record?
[reply] 2.64

###

Each entry below lists one item and its recorded θ222 nm value.
experiment: Circular dichroism (helicity); format: physicochemical; details: 20 μM solution of peptide in PBS (legend of Table 1)

# example entries with known answers
[[record]]
substance = "Ac-KIKKIENEIARIKKLLQLTVWGIKQLQARIL-NH2 [II15N17]"
reported_value = "~−33,000 deg cm^2 dmol^−1"

[[record]]
substance = "Ac-KIEEIESKIKKIENEIARIKKLLQLTVWGIKQLQARIL-NH2 [II22N17]"
reported_value = "~−41,000 deg cm^2 dmol^−1"

[[record]]
substance = "KQKKIENEIARIKKLLQLTVWGIKWLWARIL [IQ15N17]"
reported_value = "~−27,000 deg cm^2 dmol^−1"


[ask] For the substance Ac-RMKQIEDKIEEIESKQKKIENEIARIKKLLQLTVWGIKQLQARIL-NH2 [IQN17] , what θ222 nm is on record?
[reply] ~−36,000 deg cm^2 dmol^−1

[ask] For the substance Ac-RMKQIEDKIEEIESKQKKIENEIARIKKLLQLTVWDIKQLQARIL-NH2 [IQN17(G572D), reference compound] , what θ222 nm is on record?
[reply] ~−39,000 deg cm^2 dmol^−1

[ask] For the substance Ac-KIEEIESKQKKIENEIARIKKLLQLTVWGIKQLQARIL-NH2 [IQ22N17] , what θ222 nm is on record?
[reply] ~−36,000 deg cm^2 dmol^−1

[ask] For the substance Ac-IKKEIEAIKKEQEAIKKKIEAIEKLLQLTVWGIKQLQARIL-NH2 [IZN17] , what θ222 nm is on record?
[reply] ~−31,000 deg cm^2 dmol^−1

###

assay: Thermal denaturation followed by CD at 222 nm; assay type: physicochemical; settings: midpoint of thermal denaturation, 10 μM peptide in PBS
Each entry below lists one item and its recorded Melting Temperature value.

# example entries with known answers
[[record]]
substance = "Ac-RMKQIEDKIEEIESKQKKIENEIARIKKLLQLTVWGIKQLQARIL-NH2 [IQN17]"
observable = "Melting Temperature"
reported_value = ">100 °C"

[[record]]
substance = "Ac-KIKKIENEIARIKKLLQLTVWGIKQLQARIL-NH2 [II15N17]"
observable = "Melting Temperature"
reported_value = "~76 °C"

[[record]]
substance = "Ac-KIEEIESKIKKIENEIARIKKLLQLTVWGIKQLQARIL-NH2 [II22N17]"
observable = "Melting Temperature"
reported_value = ">100 °C"


[ask] For the substance Ac-KIEEIESKQKKIENEIARIKKLLQLTVWGIKQLQARIL-NH2 [IQ22N17] , what Melting Temperature is on record?
[reply] ~76 °C

[ask] For the substance Ac-YGGIKKKEIEAIKKEQEAIKKKIEAIEKEIVQARQLLSGIVQQQNNLLRAIEAQQH-NH2 [IZN26] , what Melting Temperature is on record?
[reply] ~82 °C

[ask] For the substance KQKKIENEIARIKKLLQLTVWGIKWLWARIL [IQ15N17] , what Melting Temperature is on record?
[reply] ~64 °C

###

experiment: Circular dichroism (helicity); format: physicochemical; settings: 10 μM
Each entry below lists one item and its recorded CD minimum at 222 nm value.

[[record]]
substance = "Ac-KIEEIESKIKKIENEIARIKKLLQLTVWGIKQLQARIL-NH2 [II22N17]"
reported_value = "~−41,000 deg cm^2 dmol^−1"


Shifting focus to the substance that follows.
[ask] For the substance Ac-KIKKIENEIARIKKLLQLTVWGIKQLQARIL-NH2 [II15N17] , what CD minimum at 222 nm is on record?
[reply] ~−33,000 deg cm^2 dmol^−1

###

OBSERVABLE: melting point

# example entries with known answers
[[record]]
substance = "Ac-IKKEIEAIKKEQEAIKKKIEAIEKLLQLTVWGIKQLQARIL-NH2 [IZN17]"
reported_value = "> 100 °C"

[[record]]
substance = "Ac-RMKQIEDKIEEIESKQKKIENEIARIKKLLQLTVWGIKQLQARIL-NH2 [IQN17]"
reported_value = "> 100 °C"

[[record]]
substance = "Ac-KIKKIENEIARIKKLLQLTVWGIKQLQARIL-NH2 [II15N17]"
reported_value = "~ 76 °C"

[[record]]
substance = "Ac-KIEEIESKIKKIENEIARIKKLLQLTVWGIKQLQARIL-NH2 [II22N17]"
reported_value = "> 100 °C"


Shifting focus to the substance that follows.
[ask] For the substance Ac-KIEEIESKQKKIENEIARIKKLLQLTVWGIKQLQARIL-NH2 [IQ22N17] , what melting point is on record?
[reply] ~ 76 °C

###

Each entry below lists one item and its recorded pIC50 value.
test system: HIV-1; conditions: read-out: IC50 (concentration at which half of viral infectivity is inhibited); Table 1
pIC50: −log10 of the molar value.

# example entries with known answers
[[record]]
substance = "Ac-LLQLTVWGIKQLQARIL-NH2 [N17, reference compound]"
observable = "pIC50"
reported_value = "~5.00"

[[record]]
substance = "Ac-RMKQIEDKIEEIESKQKKIENEIARIKKLIEAQQHLLQLTVWGIKQLQARIL-NH2 [IQN23]"
observable = "pIC50"
reported_value = "~7.52"

[[record]]
substance = "Ac-KIEEIESKQKKIENEIARIKKLLQLTVWGIKQLQARIL-NH2 [IQ22N17]"
observable = "pIC50"
reported_value = "~6.00"

[[record]]
substance = "Ac-KIKKIENEIARIKKLLQLTVWGIKQLQARIL-NH2 [II15N17]"
observable = "pIC50"
reported_value = "~5.52"


[ask] For the substance Ac-IKKEIEAIKKEQEAIKKKIEAIEKLLQLTVWGIKQLQARIL-NH2 [IZN17] , what pIC50 is on record?
[reply] 8.25

[ask] For the substance Ac-KIEEIESKIKKIENEIARIKKLLQLTVWGIKQLQARIL-NH2 [II22N17] , what pIC50 is on record?
[reply] ~6.77

[ask] For the substance EIARIKKLLQLTVWGIKQLQARIL [IQ8N17] , what pIC50 is on record?
[reply] ~5.00

[ask] For the substance KQKKIENEIARIKKLLQLTVWGIKWLWARIL [IQ15N17] , what pIC50 is on record?
[reply] ~5.00

[ask] For the substance Ac-RMKQIEDKIEEIESKQKKIENEIARIKKLLQLTVWDIKQLQARIL-NH2 [IQN17(G572D), reference compound] , what pIC50 is on record?
[reply] ~4.70

[ask] For the substance Ac-RMKQIEDKIEEIESKQKKIENEIARIKKLLQLTVWGIKQLQARIL-NH2 [IQN17] , what pIC50 is on record?
[reply] ~6.74

###

tested on: HIV, modified to contain a luciferase reporter gene; format: cell-based; settings: HOS cells expressing CD4 and coreceptor, 6 hours with virus, 48 hours more; read-out: IC50 of inhibition of luciferase activity
OBSERVABLE: IC50

[ask] For the substance Ac-RMKQIEDKIEEIESKQKKIENEIARIKKLLQLTVWGIKQLQARIL-NH2 [IQN17] , what IC50 is on record?
[reply] ~250 nM

[ask] For the substance Ac-RMKQIEDKIEEIESKQKKIENEIARIKKLIEAQQHLLQLTVWGIKQLQARIL-NH2 [IQN23] , what IC50 is on record?
[reply] ~80 nM

Data provenance: patent US7226598B2
